Several publications report pKi on Melanocortin receptor 3 (Homo sapiens, UniProt P41968); those values are gathered here.
Sequence (P41968 whole entry): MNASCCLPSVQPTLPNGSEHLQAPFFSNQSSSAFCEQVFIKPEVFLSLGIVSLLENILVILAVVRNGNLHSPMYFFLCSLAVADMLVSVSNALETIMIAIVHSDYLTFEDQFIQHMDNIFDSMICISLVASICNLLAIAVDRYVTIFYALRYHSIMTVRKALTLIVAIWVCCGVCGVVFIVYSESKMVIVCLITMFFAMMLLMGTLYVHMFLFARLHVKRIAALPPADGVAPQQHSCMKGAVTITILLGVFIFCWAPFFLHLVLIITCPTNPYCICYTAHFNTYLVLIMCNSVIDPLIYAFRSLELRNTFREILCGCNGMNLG
pKi: −log10 of the molar value.
experimental-readout: pKi

Worked cases, pKi given:
[
  {
    "compound": "CC(C)CC(O)c1ccccc1N1CCN(C(=O)[C@@H](Cc2ccc(Cl)cc2Cl)NC(=O)CN(C)C)CC1 (some centres undefined)",
    "assay-target": "Melanocortin receptor 3 (Homo sapiens, UniProt P41968)",
    "pKi": 5.51
  },
  {
    "compound": "O=C(N[C@H](Cc1ccc(Cl)cc1)C(=O)N1CC[N+]([O-])(C2CCCCC2)CC1)C1Cc2ccccc2CN1 (some centres undefined)",
    "assay-target": "Melanocortin receptor 3 (Homo sapiens, UniProt P41968)",
    "pKi": 3.94
  },
  {
    "compound": "COc1cc([C@@H](C)C(=O)N2CC[C@@]3(COc4cc(-c5ncccn5)c(C)nc4N3)C2)c(F)cn1",
    "assay-target": "Melanocortin receptor 3 (Homo sapiens, UniProt P41968)",
    "pKi": 6.47
  },
  {
    "compound": "CC(=O)N[C@@H](Cc1c[nH]cn1)C(=O)N[C@H](Cc1ccccc1)C(=O)N1C[C@@H](OCc2ccc3ccccc3c2)C[C@@H]1CCCN=C(N)N",
    "assay-target": "Melanocortin receptor 3 (Homo sapiens, UniProt P41968)",
    "pKi": 6.93
  }
]

(A) N=C(N)NCCC[C@H](NC(=O)[C@H](Cc1ccccc1)NC(=O)[C@H](Cc1cnc[nH]1)NC(=O)Cc1ccc(Cl)cc1)C(=O)N[C@@H](Cc1c[nH]c2ccccc12)C(N)=O
(B) CC(C)C[C@H](N)c1cccc(F)c1N1CCN(C(=O)CCc2ccc(Cl)cc2Cl)CC1
(C) O=C(N[C@H](Cc1ccc(Cl)cc1)C(=O)N1CC[N+]([O-])(c2ccccc2)CC1)C1Cc2ccccc2CN1 (some centres undefined)
(D) CNC(=O)[C@H](Cc1ccc2ccccc2c1)N1CCN(C(=O)[C@H](N)Cc2ccc(F)cc2)[C@@H](CCNC(N)=O)C1=O
Rank items: key pKi, increasing. Enter labels, ranked according to the request.
C, D, B, A

(A) CC(=O)N[C@@H](CCC(N)=O)C(=O)N[C@H](Cc1ccccc1)C(=O)N1C[C@H](OCc2ccc3ccccc3c2)C[C@@H]1C(=O)NCCN=C(N)N
(B) COCC(=O)N[C@H]1Cc2cc3c(c(c2)Cc2ccc(cc2)Oc2cccc(c2)CN(CCCN2CCN(CCCN)CC2)C1=O)OCOC3
(C) C[C@H]1NC(=O)c2cc(C#N)ccc2SC[C@@H](C(N)=O)NC(=O)[C@H](Cc2c[nH]c3ccccc23)NC(=O)[C@H](CCCNC(=N)N)NC(=O)[C@@H](Cc2ccccc2)NC(=O)[C@H](Cc2c[nH]cn2)NC1=O
(D) CNC(=O)[C@H](Cc1ccc2ccccc2c1)NC(=O)[C@H](CCCN=C(N)N)NC(=O)[C@H](CC[C@@H]1Cc2ccccc2CN1)Cc1ccccc1
// ranking: key=pKi, reverse=True Enter labels, ranked according to the request.
C, A, D, B
